src = patent US20150239831A1

Target: VIPR2 (Homo sapiens)
Sequence (P41587 24-438): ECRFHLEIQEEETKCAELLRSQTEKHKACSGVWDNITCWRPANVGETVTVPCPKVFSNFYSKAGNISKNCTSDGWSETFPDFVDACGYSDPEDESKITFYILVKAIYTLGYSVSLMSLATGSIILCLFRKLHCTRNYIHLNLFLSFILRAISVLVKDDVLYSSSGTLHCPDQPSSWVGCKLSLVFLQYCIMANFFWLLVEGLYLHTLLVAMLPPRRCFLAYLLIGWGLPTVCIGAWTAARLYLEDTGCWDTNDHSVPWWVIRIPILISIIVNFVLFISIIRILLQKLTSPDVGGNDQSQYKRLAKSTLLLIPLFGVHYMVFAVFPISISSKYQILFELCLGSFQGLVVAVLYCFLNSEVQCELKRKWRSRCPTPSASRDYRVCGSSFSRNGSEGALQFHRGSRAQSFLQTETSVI
Test: Inhibition of VIP-induced β-arrestin recruitment (% Activity Arrestin)
Type: cell-based
Design: expressed in transfected cells; host or cells: HEK293 cells transfected with VIPR2 in pCDNA3.1 (as described)
Conditions: 0.5 μM, Batch 2
quantity-measured: inhibition at 0.5 µM (%)

Previously resolved entries follow.
C#CCNC(=O)[C@H](Cc1ccccc1)C[C@H](O)CNS(=O)(=O)c1ccc([N+](=O)[O-])cc1 [Compound B21A]	9.4
O=C(NC1Cc2ccccc2C1)[C@H](Cc1ccccc1)C[C@H](O)CNS(=O)(=O)c1ccc([N+](=O)[O-])cc1 [Compound B2A]	-2.7
O=C(NC1CCCCCC1)[C@H](Cc1ccccc1)C[C@H](O)CNS(=O)(=O)c1ccc([N+](=O)[O-])cc1 [Compound B5A]	-19.2
CNC(=O)[C@H](Cc1ccccc1)C[C@H](O)CNS(=O)(=O)c1ccc([N+](=O)[O-])cc1 [Compound B20]	6.9
O=C(NN1CCCCC1)[C@H](Cc1ccccc1)C[C@H](O)CNS(=O)(=O)c1ccc([N+](=O)[O-])cc1 [Compound B6A]	-6.4
O=C(NCc1ccc(F)cc1F)[C@@H](Cc1ccccc1)C[C@H](O)CNS(=O)(=O)c1ccc([N+](=O)[O-])cc1 [Compound B14B]	23.9
O=C(NCc1ccccc1)[C@H](Cc1ccccc1)C[C@H](O)CNS(=O)(=O)c1ccc([N+](=O)[O-])cc1 [Compound B3A]	1.8
CCCCNC(=O)[C@H](Cc1ccccc1)C[C@H](O)CNS(=O)(=O)c1ccc([N+](=O)[O-])cc1 [Compound B7A]	-5.6

(I) NC(=O)[C@H](Cc1ccccc1)C[C@H](O)CNS(=O)(=O)c1ccc([N+](=O)[O-])cc1 [Compound B12A]
(II) CCNC(=O)[C@H](Cc1ccccc1)C[C@H](O)CNS(=O)(=O)c1ccc([N+](=O)[O-])cc1 [Compound B16A]
(III) O=C(NC1CCCc2ccccc21)[C@H](Cc1ccccc1)C[C@H](O)CNS(=O)(=O)c1ccc([N+](=O)[O-])cc1 (stereo partly drawn) [Compound B13A]
(IV) O=C(NC1CCCc2ccccc21)[C@@H](Cc1ccccc1)C[C@H](O)CNS(=O)(=O)c1ccc([N+](=O)[O-])cc1 (stereo partly drawn) [Compound B13B]
Could you please order the items by inhibition at 0.5 µM, going from the lowest number to the highest? Answer by listing the labels in the order asked for.
I, III, IV, II
(I: -6.5%, III: 3.3%, IV: 4.8%, II: 15.2%)
